pKi: −log10 of the molar value.
Collected set of pKi measured with 72 kDa type IV collagenase (Homo sapiens, UniProt P08253) across studies.
Sequence (P08253 whole entry): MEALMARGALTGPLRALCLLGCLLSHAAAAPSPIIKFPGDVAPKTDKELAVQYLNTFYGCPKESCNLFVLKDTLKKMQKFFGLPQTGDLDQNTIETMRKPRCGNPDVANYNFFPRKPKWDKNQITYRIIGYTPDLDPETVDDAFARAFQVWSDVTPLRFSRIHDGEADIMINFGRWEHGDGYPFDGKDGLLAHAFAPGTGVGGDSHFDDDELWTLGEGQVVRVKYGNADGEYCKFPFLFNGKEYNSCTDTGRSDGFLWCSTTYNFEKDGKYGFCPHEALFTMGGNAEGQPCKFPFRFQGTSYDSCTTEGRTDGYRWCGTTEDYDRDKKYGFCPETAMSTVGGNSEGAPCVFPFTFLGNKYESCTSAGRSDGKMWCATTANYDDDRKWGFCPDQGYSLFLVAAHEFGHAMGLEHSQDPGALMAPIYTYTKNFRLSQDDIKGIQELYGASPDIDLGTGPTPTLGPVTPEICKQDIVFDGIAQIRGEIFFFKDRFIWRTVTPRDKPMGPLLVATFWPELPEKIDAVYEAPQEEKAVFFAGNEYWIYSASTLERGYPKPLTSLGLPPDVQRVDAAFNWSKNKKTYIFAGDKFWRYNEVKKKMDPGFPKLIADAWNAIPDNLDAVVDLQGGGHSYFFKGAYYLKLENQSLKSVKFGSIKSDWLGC
RESULT TYPE: pKi

CC(C)C[C@H](CC(=O)NO)C(=O)N[C@@H](Cc1c[nH]c2ccccc12)C(=O)NCc1ccccc1 | 8.70
COc1cc(COc2ccc3c(c2)NCCN([C@H](C)C(=O)NO)S3(=O)=O)cc(OC)c1 | 6.31
NC(=O)C(Cc1c[nH]c2ccccc12)NC(=O)C(CCCCc1ccccc1)CP(=O)(O)C(Cc1ccccc1)NC(=O)OCc1ccccc1 (centres undefined) | 6.84
O=C(C[C@@H](CCCc1ccc(Cl)cc1)C(=O)N[C@@H](CC1CCCCC1)C(=O)NCCCCN1CCOCC1)NO | 10.52
[3H]CC([3H])C(=O)NCCCOCCOCCOCCCNC(=O)[C@H](CO)NC(=O)[C@H](CC)NC(=O)[C@H](Cc1cc(-c2ccc(C3(C(F)(F)F)N=N3)cc2)no1)CP(=O)(O)c1ccccc1 (some centres undefined) | 9.30

1. CCOc1cc(COc2ccc3c(c2)NCCN([C@H](C)C(=O)NO)S3(=O)=O)cc(OCC)c1
2. COc1ccc(S(=O)(=O)C(CCCc2ccccc2)CC(=O)NO)cc1 (centres undefined)
3. O=C(C[C@@H](Cc1ccccc1)C(=O)N[C@@H](CC1CCCCC1)C(=O)NCCc1ccccc1)NO
Arrange these compounds by their pKi, starting with the largest number. Form entry: labels listed in requested order.
2, 1, 3
